Biological target: Adrenergic receptor alpha-1 (Rattus norvegicus, UniProt P15823+P23944+P43140)
Sequence (P15823 whole entry): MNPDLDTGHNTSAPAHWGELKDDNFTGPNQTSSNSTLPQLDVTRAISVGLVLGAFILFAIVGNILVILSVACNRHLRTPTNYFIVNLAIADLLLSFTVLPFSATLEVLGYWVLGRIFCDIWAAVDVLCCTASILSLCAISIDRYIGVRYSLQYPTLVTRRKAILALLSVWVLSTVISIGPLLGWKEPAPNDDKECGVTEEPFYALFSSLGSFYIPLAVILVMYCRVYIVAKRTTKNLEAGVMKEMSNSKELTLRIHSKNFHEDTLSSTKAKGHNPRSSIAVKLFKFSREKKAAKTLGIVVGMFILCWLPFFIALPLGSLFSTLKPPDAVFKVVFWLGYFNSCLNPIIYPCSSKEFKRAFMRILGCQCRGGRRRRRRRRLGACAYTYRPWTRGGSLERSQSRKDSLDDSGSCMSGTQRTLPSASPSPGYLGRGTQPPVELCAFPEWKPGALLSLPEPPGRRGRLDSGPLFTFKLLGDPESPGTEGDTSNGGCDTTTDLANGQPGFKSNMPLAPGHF
Sequence (P23944 whole entry): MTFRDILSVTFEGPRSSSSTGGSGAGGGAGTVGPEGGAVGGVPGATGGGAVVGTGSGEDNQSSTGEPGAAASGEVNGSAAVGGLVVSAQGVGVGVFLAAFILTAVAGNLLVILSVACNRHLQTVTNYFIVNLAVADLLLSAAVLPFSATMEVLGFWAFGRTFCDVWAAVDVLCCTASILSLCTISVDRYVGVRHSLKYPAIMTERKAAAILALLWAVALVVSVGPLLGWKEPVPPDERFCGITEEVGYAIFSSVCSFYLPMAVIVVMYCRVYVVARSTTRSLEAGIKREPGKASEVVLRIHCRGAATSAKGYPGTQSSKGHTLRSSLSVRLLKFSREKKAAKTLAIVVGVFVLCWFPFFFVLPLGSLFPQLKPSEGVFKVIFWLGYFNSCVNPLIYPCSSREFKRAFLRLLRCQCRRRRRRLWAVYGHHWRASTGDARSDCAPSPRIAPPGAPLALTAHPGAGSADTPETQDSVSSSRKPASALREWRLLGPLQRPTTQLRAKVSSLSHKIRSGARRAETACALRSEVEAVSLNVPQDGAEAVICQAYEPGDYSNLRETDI
Sequence (P43140 whole entry): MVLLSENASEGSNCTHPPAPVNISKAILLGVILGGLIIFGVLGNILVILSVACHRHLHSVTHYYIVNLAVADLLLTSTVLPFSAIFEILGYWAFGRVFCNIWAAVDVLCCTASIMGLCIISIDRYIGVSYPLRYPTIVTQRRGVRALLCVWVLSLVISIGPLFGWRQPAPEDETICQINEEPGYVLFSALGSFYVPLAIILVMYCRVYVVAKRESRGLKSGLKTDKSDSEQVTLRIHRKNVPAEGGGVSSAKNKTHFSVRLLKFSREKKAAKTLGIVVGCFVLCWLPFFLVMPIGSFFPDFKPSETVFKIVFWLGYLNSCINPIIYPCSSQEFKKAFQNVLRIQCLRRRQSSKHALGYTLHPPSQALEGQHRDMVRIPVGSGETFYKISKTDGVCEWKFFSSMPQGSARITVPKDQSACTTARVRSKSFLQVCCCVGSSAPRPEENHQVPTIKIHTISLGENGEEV
Assay: Compound evaluated for antagonist activity to alpha-1 adrenergic receptor in a competitive assay against norepinephrine in rat vas deferences
Format: functional
quantity-measured: pA2
Keep it simple and answer with nothing but the number.

What pA2 value was documented for this molecule, COc1cc2nc(NCCCCCCNC(=O)c3ccco3)nc(N)c2cc1OC ?
7.88

// query: COc1cc2nc(NCCCCNC(=O)c3ccco3)nc(N)c2cc1OC
8.25

// query: COc1cc2nc(NCCCNC(=O)c3ccco3)nc(N)c2cc1OC
8.01

// query: COc1cc2nc(NCCCCCNC(=O)c3ccco3)nc(N)c2cc1OC
7.72
